# Tested on: Aedes aegypti
# test_method_notes: Aedes aegypti 2-choice landing assay (two-choice heat assay)
# Type: in vivo
# condition: compounds at 3% concentration; female Aedes aegypti; two heat sources at 37 C. as attractants; 5 minute trial
parameter: P.I. (mean preference index)

> print(dat)
                                   compound    test.target  quantitative.readout
1                         CCC1=C(O)C(=O)CC1  Aedes aegypti               −0.7423
2  c1ccc2c(c1)CCCN2 [1,2,3,4-Tetrahydroquinoline]  Aedes aegypti               −0.9965
3                  C1=COCCC1 [Dihydropyran]  Aedes aegypti               −0.2819
4                               CC1=CCC=CC1  Aedes aegypti               −0.1584
5  CC1CCCO1 (stereo not shown) [2-methyl tetrahydrofuran]  Aedes aegypti               −0.1815
6       CC(C)CC1OCC(C)O1 (stereo not shown)  Aedes aegypti               −0.2189
7             CC1CC=CCC1 (stereo not shown)  Aedes aegypti               −0.8265
